These measurements were taken from ChEMBL document CHEMBL4513216.

- procedure-text: Toxicity liver stage against HepG2, at 10uM
- Format: cell-based
- Parameters: test concentration 10 uM, cell line HepG2-A16-CD81EGFP
- condition: human, HepG2-A16-CD81EGFP cells; read-out: INHIBITION
Recorded cytotoxicity at 10 µM values for a group of compounds are listed next.
Write the number in % without appending the unit.

{"compound": "CC(c1ccco1)N(C(=O)CNc1ccc(C#N)cc1)C1CC1 (stereo unspecified)", "value-unit": "%", "cytotoxicity at 10 µM": 7.79}
{"compound": "COCCNC(=O)[C@H]1C[C@@H]2CCN(c3ncccn3)C[C@H]2O1", "value-unit": "%", "cytotoxicity at 10 µM": -17.1}
{"compound": "COC(C)C(=O)NS(=O)(=O)c1cccc2cc(C)cnc12 (stereo unspecified)", "value-unit": "%", "cytotoxicity at 10 µM": -6.55}
{"compound": "Cc1cc(N2CCCC2c2nc(C)cc(CCC(=O)O)n2)ncn1 (stereo unspecified)", "value-unit": "%", "cytotoxicity at 10 µM": -17.1}
{"compound": "CC(O)c1cccc(N2CCC3(CC2)Nc2ccccc2NC3=O)n1 (stereo unspecified)", "value-unit": "%", "cytotoxicity at 10 µM": -10.6}

We now examine a further compound.
INPUT: Given NCCc1cccc(CN2CCN(c3ccccc3)C(=O)C2)c1 , state its recorded cytotoxicity at 10 µM.
OUTPUT: 3.47
